# assay details: Lightfastness test of thin films
# Assay type: physicochemical
# condition context: thin film on glass plate, UV fluorescent lamps 15 W/m^2, 45° C., 10 hours
Measured I^a/I^a0 (absorbance ratio at absorption maximum after/before lightfastness test), listed per entry.
measure name: I^a/I^a0 (absorbance ratio at absorption maximum after/before lightfastness test)

structure as smiles | numeric result
Cc1c(/C=N/[N-]c2nnnn2-c2ccccc2)c([O-])n(CC(C)C)c(=O)c1C#N.Cc1c(/C=N/[N-]c2nnnn2-c2ccccc2)c([O-])n(CC(C)C)c(=O)c1C#N.Cc1c(/C=N/[N-]c2nnnn2-c2ccccc2)c([O-])n(CC(C)C)c(=O)c1C#N.Cc1c(/C=N/[N-]c2nnnn2-c2ccccc2)c([O-])n(CC(C)C)c(=O)c1C#N.[Co+3].[Co+3].c1ccc2c[n+](CCCCCC[n+]3ccc4ccccc4c3)ccc2c1 | 0.88
Cc1c(/C=N/[N-]c2nnnn2-c2ccccc2)c([O-])n(CC(C)C)c(=O)c1C#N.Cc1c(/C=N/[N-]c2nnnn2-c2ccccc2)c([O-])n(CC(C)C)c(=O)c1C#N.Cc1c(/C=N/[N-]c2nnnn2-c2ccccc2)c([O-])n(CC(C)C)c(=O)c1C#N.Cc1c(/C=N/[N-]c2nnnn2-c2ccccc2)c([O-])n(CC(C)C)c(=O)c1C#N.Fc1ccc(-[n+]2ccc(-c3cc[n+](-c4ccc(F)cc4)cc3)cc2)cc1.[Co+3].[Co+3] | 0.86
Cc1c(/C=N/[N-]c2nc3ccccc3o2)c([O-])n(Cc2ccccc2)c(=O)c1C#N.Cc1c(/C=N/[N-]c2nc3ccccc3o2)c([O-])n(Cc2ccccc2)c(=O)c1C#N.Cc1c(/C=N/[N-]c2nc3ccccc3o2)c([O-])n(Cc2ccccc2)c(=O)c1C#N.Cc1c(/C=N/[N-]c2nc3ccccc3o2)c([O-])n(Cc2ccccc2)c(=O)c1C#N.[Co+3].[Co+3].c1cc[n+]2c(c1)-c1cccc[n+]1CCC2 | 0.91
Cc1c(/C=N/[N-]c2nnnn2-c2ccccc2)c([O-])n(CC(C)C)c(=O)c1C#N.Cc1c(/C=N/[N-]c2nnnn2-c2ccccc2)c([O-])n(CC(C)C)c(=O)c1C#N.Cc1c(/C=N/[N-]c2nnnn2-c2ccccc2)c([O-])n(CC(C)C)c(=O)c1C#N.Cc1c(/C=N/[N-]c2nnnn2-c2ccccc2)c([O-])n(CC(C)C)c(=O)c1C#N.[Co+3].[Co+3].c1ccc2c(c1)ccc[n+]2CCCC[n+]1cccc2ccccc21 | 0.87
Cc1ccc(-n2c([O-])c(/C=N/[N-]c3nnnn3-c3ccccc3)c(C)c(C#N)c2=O)cc1.Cc1ccc(-n2c([O-])c(/C=N/[N-]c3nnnn3-c3ccccc3)c(C)c(C#N)c2=O)cc1.Cc1ccc(-n2c([O-])c(/C=N/[N-]c3nnnn3-c3ccccc3)c(C)c(C#N)c2=O)cc1.Cc1ccc(-n2c([O-])c(/C=N/[N-]c3nnnn3-c3ccccc3)c(C)c(C#N)c2=O)cc1.[Co+3].[Co+3].c1cc[n+]2c(c1)-c1cccc[n+]1CCC2 | 0.88

* * *

Measured Δλmax(c) (change in absorption maximum wavelength), listed per entry.
# assay details: Test of storage stability in solution
# Type: physicochemical
# condition context: 13 mg in 1 mL TFP, brown bottle, 25° C., 3 days; 1250-fold diluted for measurement
measure name: Δλmax(c) (change in absorption maximum wavelength) (nm)

structure as smiles | numeric result
Cc1c(/C=N/[N-]c2nnnn2-c2ccccc2)c([O-])n(CC(C)C)c(=O)c1C#N.Cc1c(/C=N/[N-]c2nnnn2-c2ccccc2)c([O-])n(CC(C)C)c(=O)c1C#N.[Co+3].c1ccc(-c2nn(-c3ccccc3)[n+](-c3ccccc3)n2)cc1 | 0
Cc1ccc(-n2c([O-])c(/C=N/[N-]c3nnnn3-c3ccccc3)c(C)c(C#N)c2=O)cc1.Cc1ccc(-n2c([O-])c(/C=N/[N-]c3nnnn3-c3ccccc3)c(C)c(C#N)c2=O)cc1.Cc1ccc(-n2c([O-])c(/C=N/[N-]c3nnnn3-c3ccccc3)c(C)c(C#N)c2=O)cc1.Cc1ccc(-n2c([O-])c(/C=N/[N-]c3nnnn3-c3ccccc3)c(C)c(C#N)c2=O)cc1.[Co+3].[Co+3].c1cc[n+]2c(c1)-c1cccc[n+]1CCC2 | 0
